System: IgE affinity purified from recombinant allergens and IgE from whole serum of allergic individuals
Assay: Two-dimensional Western blot: IgE binding to allergens
Set-up: species or system human
Conditions: IgE preparations that bind: AP12R, AP13R, AP19R = affinity purified from recombinant Lol p Ib.1 fragment IH, Lol p Ia clone 13R, Lol p Ib.2; TIgE = whole serum

{"residues": "AATPAAAGGKAT [Peptide 3]", "IgE binding": "AP13R TIgE"}
{"residues": "IAGALEVHAVKPA [Peptide 16]", "IgE binding": "TIgE"}
{"residues": "AAEGATPEAKYD [Peptide 13]", "IgE binding": "TIgE"}
{"residues": "AKYDAFVTALTE [Peptide 14]", "IgE binding": "TIgE"}
{"residues": "GKATTDEQKLLE [Peptide 4]", "IgE binding": "AP13R TIgE"}
{"residues": "AAATPATPAATPA [Peptide 2]", "IgE binding": "AP13R TIgE"}
{"residues": "ALTEGLRVIAGA [Peptide 15]", "IgE binding": "TIgE"}
{"residues": "ADAGYTPAAAAT [Peptide 1]", "IgE binding": "AP13R TIgE"}
{"residues": "AVKPATEEVPAA [Peptide 17]", "IgE binding": "TIgE"}

----------
Test system: MAb 40.1
Assay: Antibody screening of lambda-gt 11 cDNA clones: binding of MAb 40.1
Design: key: ++: strongest binding; -: no binding
Settings: protein expressed by lambda-gt 11 clone in E. coli Y1090, plaque lift

{"residues": "AKYDAFVTALTE [Peptide 14]", "studySystem": "MAb 40.1", "Binding of MAb 40.1": "++"}
{"residues": "AATPAAAGGKAT [Peptide 3]", "studySystem": "MAb 40.1", "Binding of MAb 40.1": "++"}
{"residues": "GKATTDEQKLLE [Peptide 4]", "studySystem": "MAb 40.1", "Binding of MAb 40.1": "++"}

----------
Tested on: IgE from sera of allergic indivs.
Experiment: Screening of lambda-gt 11 cDNA clones for IgE binding
Design: species or system human; key: ++: strongest binding; -: no binding
Conditions: protein expressed by lambda-gt 11 clone, plaque lift
measuredParameter: Binding of IgE from sera of allergic indivs.

{"residues": "AVKPATEEVPAA [Peptide 17]", "recordedMeasurement": "-"}
{"residues": "GFKAAVAAAANA [Peptide 6]", "recordedMeasurement": "-"}
{"residues": "AANAPPADKFKI [Peptide 7]", "recordedMeasurement": "-"}
{"residues": "LATSAAKAPGLI [Peptide 10]", "recordedMeasurement": "-"}
{"residues": "AAATPATPAATPA [Peptide 2]", "recordedMeasurement": "-"}
{"residues": "KFKIFEAAFSES [Peptide 8]", "recordedMeasurement": "-"}
{"residues": "VPAAKIPTGELQI [Peptide 18]", "recordedMeasurement": "++"}
{"residues": "ADAGYTPAAAAT [Peptide 1]", "recordedMeasurement": "-"}
{"residues": "KLLEDVNAGFKA [Peptide 5]", "recordedMeasurement": "-"}
{"residues": "PGLIPKLNTAYD [Peptide 11]", "recordedMeasurement": "-"}
{"residues": "GKATTDEQKLLE [Peptide 4]", "recordedMeasurement": "-"}
{"residues": "AKYDAFVTALTE [Peptide 14]", "recordedMeasurement": "++"}
{"residues": "TAYDVAYKAAEG [Peptide 12]", "recordedMeasurement": "++"}
{"residues": "FSESSKGLLATS [Peptide 9]", "recordedMeasurement": "-"}
{"residues": "AATPAAAGGKAT [Peptide 3]", "recordedMeasurement": "-"}
{"residues": "IAGALEVHAVKPA [Peptide 16]", "recordedMeasurement": "-"}
{"residues": "ALTEGLRVIAGA [Peptide 15]", "recordedMeasurement": "-"}

All values here come from patent US6277383A.
